target: IgG150-18 (scFv150-18 cloned into human IgG format); experiment: FACS assay on cells; conditions: chain shown with the change; highest antibody concentration point, Log [IgG150_18] (M) about -7.5; parent: est. 100; read off a plot
Sequence (chain, as listed by the source, chain 1 of 2): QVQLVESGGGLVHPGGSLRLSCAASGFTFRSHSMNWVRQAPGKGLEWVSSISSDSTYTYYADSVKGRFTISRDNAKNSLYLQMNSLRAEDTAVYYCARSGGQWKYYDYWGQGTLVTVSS
Sequence (chain, as listed by the source, chain 2 of 2): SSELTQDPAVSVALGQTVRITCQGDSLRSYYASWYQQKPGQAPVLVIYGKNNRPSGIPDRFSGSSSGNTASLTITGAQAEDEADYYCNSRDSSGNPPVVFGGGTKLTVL
Quick reference: percent of parent of the listed items.

| Binder | percent of parent |
| --- | --- |
| WT GPRC5D expressed on HEK293T cells, Q9NZD1 S8G; D11G; L15G; C16G; D17G; E83G; L84G; R154G; V159G; N160G; T162G; P163G; L166G; P235G; Q236G (protein) MYKDCIEGTGGYFLGGGAEGPWGIILESLAILGIVVTILLLLAFLFLMRKIQDCSQWNVLPTQLLFLLSVLGLFGLAFAFIIGGNQQTAPVRYFLFGVLFALCFSCLLAHASNLVKLVRGCVSFSWTTILCIAIGCSLLQIIIATEYVTLIMTGGMMFGGMGGCQGNVDFVVLLVYVLFLMALTFFVSKATFCGPCENWKQHGRLIFITVLFSIIIWVVWISMLLRGNPQFQRQGGWDDPVVCIALVTNAWVFLLLYIVPELCILYRSCRQECPLQGNACPVTAYQHSFQVENQELSRARDSDGAEEDVALTSYGTPIQPQTVDPTQECFIPQAKLSPQQDAGGV | 12 % of WT |
| WT GPRC5D expressed on HEK293T cells, Q9NZD1 R154G; V159G; N160G; T162G; P163G; L166G (protein) MYKDCIESTGDYFLLCDAEGPWGIILESLAILGIVVTILLLLAFLFLMRKIQDCSQWNVLPTQLLFLLSVLGLFGLAFAFIIELNQQTAPVRYFLFGVLFALCFSCLLAHASNLVKLVRGCVSFSWTTILCIAIGCSLLQIIIATEYVTLIMTGGMMFGGMGGCQGNVDFVVLLVYVLFLMALTFFVSKATFCGPCENWKQHGRLIFITVLFSIIIWVVWISMLLRGNPQFQRQPQWDDPVVCIALVTNAWVFLLLYIVPELCILYRSCRQECPLQGNACPVTAYQHSFQVENQELSRARDSDGAEEDVALTSYGTPIQPQTVDPTQECFIPQAKLSPQQDAGGV | 82 % of WT |
| WT GPRC5D expressed on HEK293T cells, Q9NZD1 E83G; L84G (protein) MYKDCIESTGDYFLLCDAEGPWGIILESLAILGIVVTILLLLAFLFLMRKIQDCSQWNVLPTQLLFLLSVLGLFGLAFAFIIGGNQQTAPVRYFLFGVLFALCFSCLLAHASNLVKLVRGCVSFSWTTILCIAIGCSLLQIIIATEYVTLIMTRGMMFVNMTPCQLNVDFVVLLVYVLFLMALTFFVSKATFCGPCENWKQHGRLIFITVLFSIIIWVVWISMLLRGNPQFQRQPQWDDPVVCIALVTNAWVFLLLYIVPELCILYRSCRQECPLQGNACPVTAYQHSFQVENQELSRARDSDGAEEDVALTSYGTPIQPQTVDPTQECFIPQAKLSPQQDAGGV | 97 % of WT |
| WT GPRC5D expressed on HEK293T cells, Q9NZD1 S8G; D11G; L15G; C16G; D17G (protein) MYKDCIEGTGGYFLGGGAEGPWGIILESLAILGIVVTILLLLAFLFLMRKIQDCSQWNVLPTQLLFLLSVLGLFGLAFAFIIELNQQTAPVRYFLFGVLFALCFSCLLAHASNLVKLVRGCVSFSWTTILCIAIGCSLLQIIIATEYVTLIMTRGMMFVNMTPCQLNVDFVVLLVYVLFLMALTFFVSKATFCGPCENWKQHGRLIFITVLFSIIIWVVWISMLLRGNPQFQRQPQWDDPVVCIALVTNAWVFLLLYIVPELCILYRSCRQECPLQGNACPVTAYQHSFQVENQELSRARDSDGAEEDVALTSYGTPIQPQTVDPTQECFIPQAKLSPQQDAGGV | 3 % of WT |
| WT GPRC5D expressed on HEK293T cells, Q9NZD1 P235G; Q236G (protein) MYKDCIESTGDYFLLCDAEGPWGIILESLAILGIVVTILLLLAFLFLMRKIQDCSQWNVLPTQLLFLLSVLGLFGLAFAFIIELNQQTAPVRYFLFGVLFALCFSCLLAHASNLVKLVRGCVSFSWTTILCIAIGCSLLQIIIATEYVTLIMTRGMMFVNMTPCQLNVDFVVLLVYVLFLMALTFFVSKATFCGPCENWKQHGRLIFITVLFSIIIWVVWISMLLRGNPQFQRQGGWDDPVVCIALVTNAWVFLLLYIVPELCILYRSCRQECPLQGNACPVTAYQHSFQVENQELSRARDSDGAEEDVALTSYGTPIQPQTVDPTQECFIPQAKLSPQQDAGGV | 100 % of WT |
